target: Cholinesterase (Homo sapiens); test: Inhibition of human serum BuChE using butyrylthiocholine iodide as substrate at 10 uM incubated for 10 mins followed by substrate addition by DTNB reagent based Ellman's method relative to control
Sequence (P06276 whole entry): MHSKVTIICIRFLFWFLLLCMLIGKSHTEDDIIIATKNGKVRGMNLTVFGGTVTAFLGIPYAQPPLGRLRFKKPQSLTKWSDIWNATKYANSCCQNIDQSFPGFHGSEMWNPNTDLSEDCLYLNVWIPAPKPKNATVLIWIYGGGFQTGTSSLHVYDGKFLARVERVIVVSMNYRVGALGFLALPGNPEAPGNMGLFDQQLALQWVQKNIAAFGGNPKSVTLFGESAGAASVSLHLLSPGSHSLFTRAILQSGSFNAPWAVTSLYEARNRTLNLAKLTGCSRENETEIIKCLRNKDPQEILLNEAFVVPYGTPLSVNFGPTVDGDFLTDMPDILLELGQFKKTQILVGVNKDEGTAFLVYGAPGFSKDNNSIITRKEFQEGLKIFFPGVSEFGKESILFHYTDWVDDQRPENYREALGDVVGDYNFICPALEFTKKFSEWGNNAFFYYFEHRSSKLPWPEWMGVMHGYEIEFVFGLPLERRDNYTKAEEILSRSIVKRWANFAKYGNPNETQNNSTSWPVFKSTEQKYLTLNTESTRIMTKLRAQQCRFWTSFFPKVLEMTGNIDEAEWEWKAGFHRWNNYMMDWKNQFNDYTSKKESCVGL
As shown below, each of these molecules has a reported inhibition value.
// note: answer is a bare numeric in %

Sample answers from the record:
compound_smiles=COc1ccc2c3c1O[C@H]1C[C@@H](OC(=O)NC4CCN(Cc5ccc(OC(F)(F)F)cc5)CC4)C=C[C@@]31CCN(C)C2 numeric_value=26
compound_smiles=COc1ccc2c3c1O[C@H]1C[C@@H](OC(=O)NC4CCN(Cc5ccc([N+](=O)[O-])cc5)CC4)C=C[C@@]31CCN(C)C2 numeric_value=24.6

// query Need inhibition of COc1ccc2c3c1O[C@H]1C[C@@H](OC(=O)NCc4ccc(C)cc4)C=C[C@@]31CCN(C)C2 , thanks.
// result 4.99
